biological target: unrelated Fc-fused recombinant protein; assay: ELISA, lysate on plate-bound antigen
Assay metric: ELISA Fc Control (RSU)
Enter your answer as a number in RSU; do not include the unit.

>>> reported_value("ISOP194AR9P1G7 (designed binder, not shown: small tags and cut ends, FN3 domain; E. coli lysate in the ELISA) LPAPKNLVVSRVTEDSARLSWGDDFNSEYFDSFLIQYQESEKVGEAIVLTVPGSERSYDLTGLKPGTEYTVSIYGVYTRAVVFTSNPLSAIFTT")
1280

[Q] ELISA Fc Control (RSU) for ISOP121AR5P1G10 (designed binder, not shown: small tags and cut ends, FN3 domain; E. coli lysate in the ELISA) LPAPKNLVVSRVTEDSARLSWEWLEHFDSFLIQYQESEKVGEAIVLTVPGSERSYDLTGLKPGTEYTVSIYGVYQRKVEFHSNPLSAIFTTT ?
[A] 1360

[Q] ELISA Fc Control (RSU) for ISOP121AR5P1D11 (designed binder, not shown: small tags and cut ends, FN3 domain; E. coli lysate in the ELISA) LPAPKNLVVSRVTEDSARLSWEWLEHFDSFLIQYQESEKVGEAIVLTVPGSERSYDLTGLKPGTEYTVSIYGVYQRKVEFHSNPLSAIFTT ?
[A] 640

Where do the numbers come from? From patent US20180162928A1.
